Recorded IC50 for molecules tested on Protein O-GlcNAcase (Homo sapiens, UniProt O60502), drawn from a number of studies.

Some molecules with known IC50 results, for comparison:
| molecule | assay-system | parameter-measured | reading |
| --- | --- | --- | --- |
| CC(c1ccc2c(c1)O[C@H](C)C2)N1CCN(c2ncc3c(n2)CCNC3=O)CC1 (stereo partly shown) | Protein O-GlcNAcase (Homo sapiens, UniProt O60502) | IC50 | < 50 nM |
| Cc1nn(C)c(C)c1-c1ccc(CN2CCCC2c2ccc3c(c2)OCCO3)cc1 (racemic) | Protein O-GlcNAcase (Homo sapiens, UniProt O60502) | IC50 | 1000 to 10000 nM |
| CC(c1ccc2scnc2c1)N1CCN(c2ncc(N=S(C)(C)=O)cn2)CC1 (racemic) | Protein O-GlcNAcase (Homo sapiens, UniProt O60502) | IC50 | < 50 nM |
| CS(=O)(=O)N1CCN(c2ccc(CN3CCCC3c3ccc4c(c3)OCCO4)cc2)CC1 (single isomer, unassigned) | Protein O-GlcNAcase (Homo sapiens, UniProt O60502) | IC50 | 50 to 200 nM |
| COc1cccc(-c2ccc(CN3CCCC3c3ccc4c(c3)OCCO4)cc2)n1 (racemic) | Protein O-GlcNAcase (Homo sapiens, UniProt O60502) | IC50 | 200 to 1000 nM |

// query For the molecule "CCCCCCN1[C@H](CO)[C@@H](O)[C@H](O)[C@@H]1CC(=O)NC" , what IC50 is on record?
// result 926 nM

// query Then what about the molecule "CNC(=O)C[C@@H]1[C@H](O)[C@H](O)[C@@H](CO)N1CCCNC(=O)OC(C)(C)C" ?
// result 7 nM

// query Then what about the molecule Brc1cnn(-c2ccc(CN3CCCC3c3ccc4c(c3)OCCO4)cc2)c1 (racemic) ?
// result 50 to 200 nM

// query Then what about the molecule CC(c1ccc2c(c1)O[C@H](C)C2)N1CCN(c2n[nH]c(=O)s2)CC1 (stereo partly shown) ?
// result 50 to 200 nM

// query Then what about the molecule COCCN=S(C)(=O)c1cnc(N2CCN(C(C)c3ccc4scnc4c3)CC2)nc1 (racemic) ?
// result < 50 nM

// query Then what about the molecule CC(c1ccc2scnc2c1)N1CCN(c2ccc(S(C)(=N)=O)cc2)CC1 (racemic) ?
// result 50 to 200 nM

// query Then what about the molecule CC(=O)Nc1nnc(N2CCN(C(C)c3cnc4c(c3)OC(C)C4)CC2)s1 (racemic) ?
// result 200 to 1000 nM

// query Then what about the molecule Cn1cc(-c2cccc(CN3CCCC3c3ccc4c(c3)OCCO4)c2)cn1 (racemic) ?
// result 200 to 1000 nM

// query Then what about the molecule "CCCCCCCCCN1[C@H](CC(=O)NCCC)[C@H](O)[C@H](O)[C@H]1CO" ?
// result 12 nM

// query Then what about the molecule Brc1cncc(Oc2ccc(CN3CCCC3c3ccc4c(c3)OCCO4)cc2)c1 (racemic) ?
// result 200 to 1000 nM

// query Then what about the molecule "CC(=O)NC[C@@H]1[C@H](O)[C@H](O)[C@@H](CO)N1CCCc1ccccc1" ?
// result 1300 nM

----------
Recorded IC50 for compounds tested on Protein O-GlcNAcase (Homo sapiens), drawn from a number of studies.

Some compounds with known IC50 results, for comparison:
| compound | reading |
| --- | --- |
| c1ccc(-c2ccc(CN3CCCC3c3ccc4c(c3)OCCO4)cc2)cc1 (racemic) | 200 to 1000 nM |
| CNC(=O)C[C@@H]1[C@@H](O)[C@H](O)[C@H](CO)N1CCCc1ccccc1 | 228 nM |
| COCCN1C(=O)NC2(CCN(C(C)c3ccc4scnc4c3)CC2)C1=O (racemic) | 200 to 1000 nM |
| CN=S(C)(=O)c1ccc(N2CCN(C(C)c3ccc4sc(C)nc4c3)CC2)nc1 (racemic) | 50 to 200 nM |

// query Give recorded IC50 with Protein O-GlcNAcase (Homo sapiens) for the following compound: "CCNC(=O)C[C@@H]1[C@@H](O)[C@H](O)[C@@H](CO)N1CCCc1ccccc1"
// result 69.3 nM

// query Then what about the compound "CNC(=O)C[C@@H]1N[C@H](CO)[C@@H](O)[C@@H]1O" ?
// result 586 nM

// query Then what about the compound Cc1cnccc1-c1ccc(CN2CCCC2c2ccc3c(c2)OCCO3)cc1C (racemic) ?
// result 1000 to 10000 nM

// query Then what about the compound N#Cc1cnn(-c2ccc(CN3CCCC3c3ccc4c(c3)OCCO4)cc2)c1 (racemic) ?
// result 50 to 200 nM

----------
Recorded IC50 for molecules tested on Protein O-GlcNAcase (Homo sapiens, UniProt O60502), drawn from a number of studies.

Some molecules with known IC50 results, for comparison:
| molecule | IC50 |
| --- | --- |
| C=CCNC(=O)C[C@@H]1[C@H](O)[C@H](O)[C@@H](CO)N1CCCCCC | 1590 nM |
| CCCCCCN1[C@H](CO)[C@@H](O)[C@H](O)[C@H]1CC(=O)NCCC | 119 nM |

// query For the molecule "CCCNC(=O)C[C@H]1N[C@H](CO)[C@@H](O)[C@@H]1O" , what IC50 is on record?
// result 113 nM

// query Then what about the molecule c1cnc(N2CCC(CN3CCCC3c3ccc4c(c3)OCCO4)CC2)nc1 (racemic) ?
// result 200 to 1000 nM

// query Then what about the molecule "CNC(=O)C[C@@H]1[C@H](O)[C@H](O)[C@@H](CO)N1CCCCCNS(=O)(=O)c1ccc(-c2ccccc2)cc1" ?
// result < 3 nM

// query Then what about the molecule CC(c1ccc2c(c1)OCC2)N1CCC2(CC1)CC(=O)N(c1ccc(C#N)cc1)C2 (racemic) ?
// result 1000 to 10000 nM

// query Then what about the molecule COc1cc2c(cc1Cl)CCN(C(C)c1ccc3scnc3c1)CC2 (racemic) ?
// result < 50 nM

// query Then what about the molecule CCS(=N)(=O)c1cnc(N2CCN(C(C)c3ccc4scnc4c3)CC2)nc1 (racemic) ?
// result < 50 nM

----------
Recorded pIC50 for compounds tested on Protein O-GlcNAcase (Homo sapiens, UniProt O60502), drawn from a number of studies.
pIC50: −log10 of the molar value.

| compound | pIC50 |
| --- | --- |
| CC(c1ccc2scnc2c1)N1CCN(c2ccc(S(C)(=N)=O)cn2)CC1 (racemic) | > 7.30 |
| CN1CCN(c2ccc(CN3CCCC3c3ccc4c(c3)OCCO4)cc2)CC1 (racemic) | 5.00 to 6.00 |
| c1cnnc(-c2ccc(CN3CCCC3c3ccc4c(c3)OCCO4)cc2)c1 (racemic) | 6.70 to 7.30 |
| CC(c1ccc2c(c1)OCC2)N1CCC2(CC1)NC(=O)N(Cc1cncnc1)C2=O (racemic) | 6.70 to 7.30 |
| CCCCCCN1[C@H](CO)[C@@H](O)[C@H](O)[C@@H]1CC(=O)NCC | 5.16 |
| CC(c1ccc2scnc2c1)N1CCC2(CC1)NC(=O)N(Cc1ccc(S(C)(=O)=O)cc1)C2=O (stereo not shown) | 6.70 to 7.30 |
| CC(c1ccc2c(c1)O[C@H](C)C2)N1CCN(c2ncc(S(C)(=O)=O)cn2)CC1 (stereo partly shown) | > 7.30 |
| CCCNC(=O)C[C@H]1N[C@H](CO)[C@@H](O)[C@H]1O | 6.27 |
| Clc1cc(-c2cccnc2)ccc1CN1CCCC1c1ccc2c(c1)OCCO2 (racemic) | 6.00 to 6.70 |
| Cc1cc(N2C(=O)NC3(CCN(C(C)c4ccc5scnc5c4)CC3)C2=O)cc(C)n1 (racemic) | > 7.30 |

// query For the compound Cc1nc2c(s1)CCN(C(C)c1ccc3scnc3c1)CC2 (racemic) , what pIC50 is on record?
// result > 7.30

// query Then what about the compound CC(c1ccc2scnc2c1)N1CCc2cc(S(C)(=O)=O)cnc2CC1 (racemic) ?
// result > 7.30

// query Then what about the compound CC(c1ccc2scnc2c1)N1CCC2(CC1)NC(=O)N(C)C2=O (racemic) ?
// result 6.00 to 6.70

// query Then what about the compound CCN=S(C)(=O)c1cnc(N2CCN(C(C)c3ccc4sc(C)nc4c3)CC2)nc1 (racemic) ?
// result > 7.30

// query Then what about the compound "CCCCCCN1[C@H](CO)[C@@H](O)[C@H](O)[C@H]1CC(=O)NC" ?
// result 7.63

// query Then what about the compound Cc1cc(N2CC3(CCN(C(C)c4ccc5scnc5c4)CC3)CC2=O)n2nccc2n1 (racemic) ?
// result 5.00 to 6.00

----------
Recorded pIC50 for molecules tested on Protein O-GlcNAcase (Homo sapiens), drawn from a number of studies.
pIC50: −log10 of the molar value.

Some molecules with known pIC50 results, for comparison:
| molecule | reading |
| --- | --- |
| Cc1cc(-c2cccnc2)ccc1CN1CCCC1c1ccc2c(c1)OCCO2 (single isomer, unassigned) | 6.70 to 7.30 |
| CCCCCCN1[C@H](CC(=O)NCCC)[C@H](O)[C@H](O)[C@H]1CO | 7.32 |
| Cc1cnc(-c2ccc(CN3CCCC3c3ccc4c(c3)OCCO4)cc2)s1 (racemic) | 6.00 to 6.70 |
| CC(=O)Nc1ncc(CN2CCCC2c2ccc3c(c2)OCCO3)s1 (racemic) | 6.00 to 6.70 |
| CC(c1ccc2scnc2c1)N1CCC2(CC1)CN(c1ccc(C#N)cc1)C(=O)N2 (racemic) | 6.70 to 7.30 |

// query For the molecule CCN=S(C)(=O)c1cnc(N2CCN(C(C)c3ccc4c(c3)OCC4)CC2)nc1 (single isomer, unassigned) , what pIC50 is on record?
// result > 7.30

// query Then what about the molecule CC(c1ccc2scnc2c1)N1CCc2ccc(O)cc2CC1 (racemic) ?
// result > 7.30

// query Then what about the molecule CC(C)COc1ccc2c(c1)CCN(C(C)c1ccc3scnc3c1)CC2 (racemic) ?
// result 6.00 to 6.70

// query Then what about the molecule CC(c1ccc2scnc2c1)N1CCC2(CC1)CN(c1cccc(S(C)(=O)=O)c1)C(=O)N2 (racemic) ?
// result 6.70 to 7.30

// query Then what about the molecule Cc1nc2cc(C(C)N3CCN(c4ncc(S(C)(=N)=O)cn4)CC3)ccc2s1 (single isomer, unassigned) ?
// result 5.00 to 6.00

// query Then what about the molecule CSc1cnc(N2CC3(CCN(Cc4cnc(NC(C)=O)s4)CC3)NC2=O)nc1 (racemic) ?
// result > 7.30

// query Then what about the molecule Cc1cc(-c2ccncc2C)ccc1CN1CCCC1c1ccc2c(c1)OCCO2 (racemic) ?
// result 6.00 to 6.70

// query Then what about the molecule c1cncc(-c2ccc(CN3CCCC3c3ccc4c(c3)OCCO4)cc2)c1 (racemic) ?
// result 6.70 to 7.30

// query Then what about the molecule CC(c1ccc2scnc2c1)N1CCc2cn(C)nc2CC1 (racemic) ?
// result > 7.30

// query Then what about the molecule c1ccc2ncc(CN3CCCC3c3ccc4c(c3)OCCO4)cc2c1 (racemic) ?
// result 6.00 to 6.70

// query Then what about the molecule CC(c1ccc2scnc2c1)N1CCCc2ncc([N+](=O)[O-])cc2C1 (racemic) ?
// result 6.00 to 6.70
